Tested on: Asbergillus niger ZM35
PROTOCOL: MIC, agar diffusion, Asbergillus niger ZM35
Format: cell-based
TEST PARAMETERS: Aspergillus niger, read-out: in vitro activities MIC
METRIC NAME: MIC (µg/mL)
Give bare numbers, in µg/mL.

- MOLECULE: "CC(=O)O[C@H]1C[C@@]2(C)C(C[C@@H](O)C3[C@@]4(C)CC[C@@H](OC(C)=O)[C@@H](C)C4CC[C@@]32C)[C@@H]1[C@H](CCCC(C)C)C(=O)NCCCNCCCCNCCCN (some centres unmarked)"
  UOM: "µg/mL"
  MIC: 125

Please state MIC for every molecule in the list that follows.
1. CC(=O)O[C@H]1C[C@@]2(C)C(CCC3[C@@]4(C)CC[C@@H](OS(=O)(=O)O)[C@@H](C)C4CC[C@@]32C)[C@@H]1[C@H](CCCC(C)C)C(=O)NCCCNCCCNCCCN (some centres unmarked)
2. CC(=O)O[C@H]1C[C@@]2(C)C(CCC3[C@@]4(C)CC[C@@H](OS(=O)(=O)O)[C@@H](C)C4CC[C@@]32C)[C@@H]1[C@H](CCCC(C)C)C(=O)NCCCNCCCCNCCCN (some centres unmarked)

**A:**
4
16

---

Answer each item with its documented MIC.
Tested on: S. aureus CJ234F
PROTOCOL: MIC, agar diffusion, S. aureus CJ234F
Assay type: cell-based
TEST PARAMETERS: Staphylococcus aureus; S. aureus CJ234F (MRSA, Fus. resistant); read-out: in vitro activities MIC
One number for each entry, in µg/mL.

- COMPOUND: "C/C(=C\\C(=O)OCCCCCCCCC(=O)O)C[C@@H]1OC[C@H](C[C@@H]2O[C@H]2[C@@H](C)[C@H](C)O)[C@@H](O)[C@H]1O [Mupirocin, reference compound]"
  METRIC NAME: "MIC"
  REPORTED VALUE: 0.5

Field: MIC. Fill in for each record below.
1. CC(=O)O[C@H]1C[C@@]2(C)C(C[C@@H](O)C3[C@@]4(C)CC[C@@H](O)[C@@H](C)C4CC[C@@]32C)[C@@H]1[C@H](CCCC(C)C)C(=O)NCCCNCCCCNCCCN (stereo partly shown)
2. CC(C)CCCC(C(=O)NCCNCCCNCCN)[C@H]1CC[C@@]2(C)C1CCC1[C@@]3(C)CC[C@@H](O)[C@@H](C)C3CC[C@@]12C (stereo partly shown)

**A:**
[1, 4]

response.value for CC(=O)O[C@H]1C[C@@]2(C)C(C[C@@H](O)C3[C@@]4(C)CC[C@@H](O)[C@@H](C)C4CC[C@@]32C)[C@@H]1[C@H](CCCC(C)C)C(=O)NCCCCNCCCN (stereo partly shown) (field: MIC) = 4

---

System: Asbergillus niger ZM35
PROTOCOL: MIC, agar diffusion, Asbergillus niger ZM35
Format: cell-based
TEST PARAMETERS: Aspergillus niger, read-out: in vitro activities MIC
For each of the molecules below, state its MIC.

- MOLECULE: "CC(C)CCCC(C(=O)NCCCNCCCCNCCCN)[C@@H]1CC[C@@]2(C)C1C[C@@H](O)C1[C@@]3(C)CC[C@@H](O)[C@@H](C)C3CC[C@@]12C (some centres unmarked)"
  MIC: "> 125 µg/mL"
- MOLECULE: "CC(C)CCCC(C(=O)NCCCCNCCCN)[C@H]1CC[C@@]2(C)C1CCC1[C@@]3(C)CC[C@@H](O)[C@@H](C)C3CC[C@@]12C (some centres unmarked)"
  MIC: "> 125 µg/mL"
- MOLECULE: "CC(C)CCCC(C(=O)NCCNCCCNCCN)[C@H]1CC[C@@]2(C)C1CCC1[C@@]3(C)CC[C@@H](O)[C@@H](C)C3CC[C@@]12C (some centres unmarked)"
  MIC: "> 125 µg/mL"
- MOLECULE: "CC(C)CCCC(C(=O)NCCCNCCCNCCCN)[C@@H]1CC[C@@]2(C)C1C[C@@H](O)C1[C@@]3(C)CC[C@@H](O)[C@@H](C)C3CC[C@@]12C (some centres unmarked)"
  MIC: "> 125 µg/mL"
- MOLECULE: "CC(=O)O[C@H]1C[C@@]2(C)C(C[C@@H](O)C3[C@@]4(C)CC[C@@H](OC(C)=O)[C@@H](C)C4CC[C@@]32C)[C@@H]1[C@H](CCCC(C)C)C(=O)NCCCNCCCNCCCN (some centres unmarked)"
  MIC: "64 µg/mL"

Could you tell me MIC for each of these molecules? They are listed below.
1. CC(=O)O[C@H]1C[C@@]2(C)C(C[C@@H](O)C3[C@@]4(C)CC[C@@H](O)[C@@H](C)C4CC[C@@]32C)[C@@H]1[C@H](CCCC(C)C)C(=O)NCCCCNCCCNCCCCN (some centres unmarked)
2. CC(=O)O[C@H]1C[C@@]2(C)C(CCC3[C@@]4(C)CC[C@@H](O)[C@@H](C)C4CC[C@@]32C)[C@@H]1[C@H](CCCC(C)C)C(=O)NCCCNCCCN (some centres unmarked)
3. CC(=O)O[C@H]1C[C@@]2(C)[C@@H](C[C@@H](O)[C@H]3[C@@]4(C)CC[C@@H](O)[C@@H](C)[C@@H]4CC[C@@]32C)/C1=C(\CCC=C(C)C)C(=O)O

**A:**
1: 4 µg/mL; 2: 16 µg/mL; 3: > 64 µg/mL
